test.details: Anti-cancer activity, colo205
Format: cell-based, human
condition.summary: human; colo205, large intestine cancer; read-out: LC50
Where no end group is shown, it is not given here.
property.name: CC50 at 2 days

Task: Fill blank: measured CC50 at 2 days of the sequence KVLKVLKVLKVLKVLKVL [KVL6, KVLKVLKVLKVLKVLKVL] is ____.
Result: 100 µM

Task: Fill blank: measured CC50 at 2 days of the sequence ALRALRALRALRALRALR [ALR6, ALRALRALRALRALRALR] is ____.
Result: > 100 µM

====

Assign CC50 at 2 days to each entry below.
test.details: Anti-cancer activity, ACHN
Type: cell-based, human
condition.summary: human, ACHN cells (kidney cancer cells), read-out: LC50
Where no end group is shown, it is not given here.

Task: Fill blank: measured CC50 at 2 days of the sequence ALRALRALRALRALRALR [ALR6, ALRALRALRALRALRALR] is ____.
Result: > 100 µM

Task: Fill blank: measured CC50 at 2 days of the sequence KVLKVLKVLKVLKVLKVL [KVL6, KVLKVLKVLKVLKVLKVL] is ____.
Result: 80 µM
